Values from the supplement of paper PMC10065799

Measured SH2 binding enrichment, listed per entry.
target: Grb2 SH2 (UniProt P62993); assay: SH2 binding enrichment of the phosphorylated peptide, bacterial display (enrichment ratio); higher = better substrate or ligand; peptides without Tyr show the background
Sequence (P62993 whole entry, looked up): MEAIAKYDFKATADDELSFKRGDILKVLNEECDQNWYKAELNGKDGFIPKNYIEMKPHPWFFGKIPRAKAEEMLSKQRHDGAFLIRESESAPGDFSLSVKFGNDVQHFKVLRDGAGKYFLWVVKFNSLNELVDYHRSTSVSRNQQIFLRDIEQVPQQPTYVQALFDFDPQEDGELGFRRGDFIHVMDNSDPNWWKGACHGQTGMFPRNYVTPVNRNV
The answer should be written as a number, with no unit following it.

Would you please look over these solved cases?
{"Query sequence": "IRTIDYRYTVC [IDS_Y497_W502C]", "SH2 binding enrichment": 0.884}
{"Query sequence": "CTAIHYNFMCN [TP53_Y234_T231A_YF]", "SH2 binding enrichment": 1.33}
{"Query sequence": "PYSSPYENSLI [EPOR_Y489_N487S]", "SH2 binding enrichment": 2.51}
{"Query sequence": "RNIQQHNSFVS [PRKAR1A_Y373_Y373H]", "SH2 binding enrichment": 0.806}
{"Query sequence": "QKPLDYFRVNL [GALE_Y104_YF]", "SH2 binding enrichment": 1.05}

Problem: Please report the recorded SH2 binding enrichment for NTGGYYDLYGG [PTPN11_Y63_D61G] .
Solution: 0.928

Problem: How about MASTSYDYCRV [BST2_Y6] ?
Solution: 0.904

Problem: How about IQKKFYRAILE [CHD7_Y1218_YF] ?
Solution: 0.769

Problem: How about DWRQEYVLNEP [TGM1_Y267_S272P] ?
Solution: 0.877

Problem: How about DPTFGYEDFTR [SESN2_Y323] ?
Solution: 0.821

Problem: How about RVEDACILTCN [CCT6A_Y229_Y229C] ?
Solution: 0.85

Problem: How about VPVNGYQPVTA [ROR2_Y824_P828T] ?
Solution: 0.846

Problem: How about KLPDAYEPLIL [G6PD_Y437_R439P] ?
Solution: 0.964

Problem: How about TNIKRYHIAKV [HARS1_Y150] ?
Solution: 0.967

====

system: c-Src; assay: phosphorylation enrichment, bacterial display (enrichment ratio); higher = better substrate or ligand; peptides without Tyr show the background;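 further: 11-residue human phosphosite peptides and single-mutation variants displayed on the E. coli surface, counted by deep sequencing, each peptide's frequency after selection divided by its frequency in the unselected input library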;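 further: frequency after pTyr selection over input frequency; kinase dosed for 20-30% of maximal phosphorylation in three min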
If the reported phosphorylation enrichment equals or exceeds 0.5, assign 1. If not, assign -1.

{"Query sequence": "QLLIEYPPEEV [ZZZ3_Y670_K669E]", "Group": -1}
{"Query sequence": "DKMEAYNINET [TEKT4_Y210_D213N]", "Group": 1}
{"Query sequence": "GIKAAYEAELG [LMNA_Y81]", "Group": -1}
{"Query sequence": "KWTVDYLGQVG [TYW5_Y48_S50G]", "Group": -1}
{"Query sequence": "QEITTYRRLLE [KRT14_Y415_A413T]", "Group": 1}

Problem: hey, is phosphorylation enrichment for this one >= 0.5? EDSEYYRAFEE [CASQ2_Y179_K180R]
Solution: 1

Problem: How about FQLENYCNGGG [INS_Y108_YF] ?
Solution: 1

Problem: How about LVMFISAIFGM [SCN1A_Y1684_Y1684S] ?
Solution: 1

Problem: How about PKDSAYVTWEP ?
Solution: 1

Problem: How about KDHPDYKYPPR [SOX10_Y171_Q174P] ?
Solution: -1

Problem: How about IHHIDYYKETT [FGFR1_Y653_K656E] ?
Solution: -1

Problem: How about EEGENYQKGEQ [CHGB_Y173_R178Q] ?
Solution: 1

Problem: How about LKRIAYFLCLR [LGI1_Y21_L26R] ?
Solution: -1

Problem: How about THLAPYSDELR [APOA1_Y190] ?
Solution: -1

Problem: How about KDYETYQPFQN [CTNND2_Y1157] ?
Solution: 1

Problem: How about LTERGYSFVTT [ACTA1_Y200] ?
Solution: 1

Problem: How about RHPEVYHHLGI [NVL_Y290_V295I] ?
Solution: 1

Problem: How about TNIKRYHIAKV [HARS1_Y150] ?
Solution: -1

Problem: How about VLTSKYHGGGG [HBA1_Y141_R142H] ?
Solution: -1

Problem: How about ESDGAYIQRMQ [CCDC137_Y125_H127Q] ?
Solution: -1

Problem: How about PRDGEYFTLQI [TP53_Y327_L323R] ?
Solution: 1

Problem: How about EYGRRYGFSRQ [CCDC93_Y209] ?
Solution: -1

Problem: How about GKSHIYFWTLD [EML2_Y230_E235D] ?
Solution: 1

Problem: How about LTSKPYAFTAQ [NDUFS1_Y236_R241Q] ?
Solution: -1
